# Test system: A549
# EXPERIMENT DESCRIPTION: Growth inhibition of human A549 cells after 48 hrs by sulforhodamine B assay
# Assay type: functional, cell-based
# PROTOCOL CONDITIONS: A549, 48 h
ASSAY READOUT: IC50 (µM)

Reference set (2 entries):
                               input_smiles  assay_readout  reported
0  O=C(NN[C@@H]1O[C@H](CO)[C@@H](O)[C@H](O)[C@H]1O)c1cc(-c2ccc(Cl)cc2)nn1Cc1ccccc1           IC50      31.8
1  CC(C)(C)c1ccc(Cn2nc(-c3ccccc3)cc2C(=O)NN[C@@H]2O[C@H](CO)[C@@H](O)[C@H](O)[C@H]2O)cc1           IC50      21.6

P = CC(C)(C)c1ccc(Cn2nc(-c3ccccc3)cc2C(=O)NN[C@@H]2OC[C@@H](O)[C@H](O)[C@H]2O)cc1
Q = COc1ccc(-c2cc(C(=O)NN[C@@H]3O[C@H](CO)[C@@H](O)[C@H](O)[C@H]3O)n(Cc3ccc(C(C)(C)C)cc3)n2)cc1
Task item: Would you let me know which has the greater IC50 value, P or Q ? Selection: enter the item's label.
Reply: Q

src = ChEMBL document CHEMBL1152621
